Where do the numbers come from? From patent US20080188654A1.

- System: TNF-alpha
- Protocol: Inhibition of LPS-induced TNF-alpha release by human monocytes
- Type: cell-based
- Test context: Monocyte, 30 μM, read-out: Percent Inhibition of TNF-alpha Release
Please provide measured inhibition at 30 µM for the entries that follow.
Write the value in % as a bare number.

Qu. Requested field: inhibition at 30 µM. Item: `CN(C)C(=O)/C(=C/c1cccnc1)c1ccc(Oc2ccc(CCC(=O)NC(N)=O)cc2)cc1`
Ans. 81

Qu. Requested field: inhibition at 30 µM. Item: `CCOC(=O)CCc1ccc(Oc2ccc(/C(=C\c3cc(OC)cc(OC)c3)C(=O)N(C)C)cc2)cc1`
Ans. 78

Qu. Requested field: inhibition at 30 µM. Item: `COc1cc(/C=C(/C(=O)N(C)C)c2ccc(Oc3ccc(CCC(=O)NC(N)=O)cc3)cc2)cc(OC)c1`
Ans. 78

Qu. Requested field: inhibition at 30 µM. Item: `COc1cc(/C=C(/C(=O)N(C)C)c2ccc(Oc3ccc(CC(C(N)=O)C(N)=O)cc3)cc2)cc(OC)c1`
Ans. 80
